target: human Kv1.3 (Homo sapiens (Human), UniProt P22001); assay: Kv1.3 potency evaluation, automated patch clamp electrophysiology (QPatch HT) in CHO-Kv1.3 cells; settings: whole-cell QPatch HT, % inhibition of charge, step to +30 mV, four concentrations, N≥3 cells, read-out: hKv1.3 IC50
Sequence (P22001 whole entry): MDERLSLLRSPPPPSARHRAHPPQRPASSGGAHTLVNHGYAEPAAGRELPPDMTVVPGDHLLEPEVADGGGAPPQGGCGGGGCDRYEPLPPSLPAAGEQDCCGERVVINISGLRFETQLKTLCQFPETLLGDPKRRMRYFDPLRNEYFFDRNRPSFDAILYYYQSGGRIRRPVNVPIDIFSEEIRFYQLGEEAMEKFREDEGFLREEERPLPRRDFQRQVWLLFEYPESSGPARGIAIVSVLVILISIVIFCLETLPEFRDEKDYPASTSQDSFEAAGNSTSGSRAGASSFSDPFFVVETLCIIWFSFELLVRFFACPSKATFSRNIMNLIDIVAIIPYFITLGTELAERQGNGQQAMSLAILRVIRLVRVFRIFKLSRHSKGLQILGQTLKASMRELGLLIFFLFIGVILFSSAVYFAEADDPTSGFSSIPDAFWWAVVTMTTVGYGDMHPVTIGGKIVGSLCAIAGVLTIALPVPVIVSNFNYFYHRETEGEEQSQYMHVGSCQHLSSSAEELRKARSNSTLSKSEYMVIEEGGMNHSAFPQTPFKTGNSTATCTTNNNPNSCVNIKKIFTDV
Entries and their IC50 values follow.
Respond with the bare value in nM.

>>> df
                                   compound  val
0  CC1(C)N=C(C23CC(N(Cc4ccc(Cl)c(Cl)c4)S(=O)(=O)CCC(F)F)(C2)C3)N[C@H]1C(=O)NC12CC(C1)C2 (mixture of isomers)   57
1  CC1(C)N=C(C23CC(N(Cc4ccc(Cl)cc4)S(=O)(=O)c4cccnc4)(C2)C3)N[C@H]1C(=O)NCCC(F)(F)F (mixture of isomers)   72
2  CC(C)NC(=O)C1NC(C23CC(N(Cc4ccc(C(F)(F)F)cc4)S(=O)(=O)c4ccc(F)cc4)(C2)C3)=NC1(C)C (stereo not drawn)  143
3  CC1(C)N=C(C23CC(N(Cc4ccc(F)cc4)S(=O)(=O)c4ccccc4)(C2)C3)NC1C(=O)NCCC(F)(F)F (stereo not drawn)   66
4  CC1(C)N=C(C23CC(N(Cc4ccc(C(F)(F)F)cc4)S(=O)(=O)c4ccc(F)cc4)(C2)C3)NC1C(=O)NCC1CC(F)(F)C1 (stereo not drawn)  110

Continue with the compound presented below.
Field request: IC50 | item: CC1(C)N=C(C23CC(N(Cc4ccc(Cl)c(F)c4)S(=O)(=O)c4ccccc4)(C2)C3)N[C@H]1C(=O)NC1(CC(F)(F)F)CC1 (mixture of isomers)
74

---

target: human Kv1.3 (Homo sapiens (Human), UniProt P22001); assay: Kv1.3 potency evaluation, automated patch clamp electrophysiology (QPatch HT) in CHO-Kv1.3 cells; conditions: whole-cell QPatch HT, % inhibition of charge, step to +30 mV, four concentrations, N≥3 cells, read-out: hKv1.3 IC50
pIC50: −log10 of the molar value.
Outcome label depends on pIC50 relative to 7: at/above gives true, below gives false.

Compound	Cat
CCCS(=O)(=O)N(Cc1ccc(Cl)c(Cl)c1)C12CC(C3=NC(C)(C)[C@H](C(=O)NCC(C)(C)C(F)(F)F)N3)(C1)C2 (mixture of isomers)	true
CC1(C)N=C(C23CC(N(Cc4ccc(C(F)(F)F)cc4)S(=O)(=O)c4ccc(F)cc4)(C2)C3)NC1C(=O)N1CCC(F)(F)CC1 (stereo not drawn)	false
CC1(C)N=C(C23CC(N(Cc4ccc(Cl)c(F)c4)S(=O)(=O)c4ccccc4)(C2)C3)N[C@@H]1C(=O)N1CCC(F)(F)CC1 (mixture of isomers)	false

Hi, just wondering whether CC(C)(F)CNC(=O)[C@@H]1NC(C23CC(N(Cc4ccc(Cl)c(F)c4)S(=O)(=O)c4ccccc4)(C2)C3)=NC1(C)C (mixture of isomers) shows pIC50 of 7 or higher.
true

Quick one: CC1(C)N=C(C23CC(N(Cc4ccc(Cl)cc4)S(=O)(=O)c4ccccc4)(C2)C3)N[C@H]1C(=O)NCC(C)(C)C(F)(F)F (mixture of isomers)
true

Quick one: C[C@@]1(C(=O)NCC2CCCCC2)CN=C(C23CC(N(Cc4ccc(C(F)(F)F)cc4)S(=O)(=O)c4ccc(F)cc4)(C2)C3)N1 (mixture of isomers)
false

Quick one: Cc1ccccc1S(=O)(=O)N(Cc1ccc(Cl)cc1)C12CC(C3=NC(C)(C)[C@H](C(=O)NCCC(F)(F)F)N3)(C1)C2 (mixture of isomers)
false

---

biological target: human Kv1.3 (Homo sapiens (Human)); experiment: Kv1.3 potency evaluation, automated patch clamp electrophysiology (QPatch HT) in CHO-Kv1.3 cells; conditions: whole-cell QPatch HT, % inhibition of charge, step to +30 mV, four concentrations, N≥3 cells, read-out: hKv1.3 IC50
Reported Endpoint: log10 of IC50 (log10 of the value in nM)
Values below are the log10 of the recorded IC50, with nM as the unit.

Compound	Assayed System	log10 of IC50
CC1(C)N=C(C23CC(N(Cc4ccc(Cl)cc4)S(=O)(=O)c4ccccc4)(C2)C3)N[C@H]1C(=O)NCC1CC1(F)F (mixture of isomers) [Example 51]	human Kv1.3 (Homo sapiens (Human))	1.68
CC1(C)N=C(C23CC(N(Cc4ccc(Cl)cc4)S(=O)(=O)CC4CCC4)(C2)C3)N[C@H]1C(=O)NCCC(F)(F)F (mixture of isomers) [Example 105]	human Kv1.3 (Homo sapiens (Human))	1.84
CN(CCC(F)(F)F)C(=O)[C@@H]1NC(C23CC(N(Cc4ccc(Cl)c(F)c4)S(=O)(=O)c4ccccc4)(C2)C3)=NC1(C)C (mixture of isomers) [Example 3]	human Kv1.3 (Homo sapiens (Human))	1.79
C[C@]1(C(=O)NCC2CCC2)CN=C(C23CC(N(Cc4ccc(C(F)(F)F)cc4)S(=O)(=O)c4ccc(F)cc4)(C2)C3)N1 (mixture of isomers) [Example 214]	human Kv1.3 (Homo sapiens (Human))	2.20
CC1(C)N=C(C23CC(N(Cc4ccc(Cl)c(Cl)c4)S(=O)(=O)c4ccccc4)(C2)C3)N[C@H]1C(=O)NCC1CC(F)(F)C1 (mixture of isomers) [Example 47]	human Kv1.3 (Homo sapiens (Human))	1.67

Field request: log10 of IC50 | item: CC1(C)N=C(C23CC(N(Cc4ccc(Cl)c(F)c4)S(=O)(=O)c4ccccc4)(C2)C3)N[C@H]1C(=O)NCC1CC1(F)F (mixture of isomers) [Example 14]
1.52

Quick one: CC1(C)N=C(C23CC(N(Cc4ccc(Cl)cc4)S(=O)(=O)c4cc(C(F)(F)F)ccc4O)(C2)C3)N[C@H]1C(=O)NCCC(F)(F)F (mixture of isomers) [Example 286]
2.93

Quick one: CCCNC(=O)[C@@H]1NC(C23CC(N(Cc4ccc(Cl)c(F)c4)S(=O)(=O)c4ccccc4)(C2)C3)=NC1(C)C (mixture of isomers) [Example 19]
1.57

Quick one: CC1(C)N=C(C23CC(N(Cc4ccc(Cl)cc4)S(=O)(=O)CCO)(C2)C3)N[C@H]1C(=O)NCCC(F)(F)F (mixture of isomers) [Example 294]
4.02

Quick one: CC1(C)N=C(C23CC(N(Cc4ccc(Cl)c(F)c4)S(=O)(=O)c4ccccc4)(C2)C3)N[C@H]1C(=O)NC1CCC1 (mixture of isomers) [Example 60]
1.71

Quick one: CC(F)(F)CCS(=O)(=O)N(Cc1ccc(Cl)c(F)c1)C12CC(C3=NC(C)(C)[C@H](C(=O)NCC(F)(F)C(F)(F)F)N3)(C1)C2 (mixture of isomers) [Example 222]
2.23

Quick one: CC1(C)N=C(C23CC(N(Cc4ccc(Cl)c(F)c4)S(=O)(=O)c4ccccc4)(C2)C3)N[C@H]1C(=O)NC[C@H]1CC1(F)F (mixture of isomers) [Example 22]
1.59

Quick one: CN(C(=O)[C@@H]1NC(C23CC(N(Cc4ccc(Cl)c(Cl)c4)S(=O)(=O)c4ccccc4)(C2)C3)=NC1(C)C)C12CC(C1)C2 (mixture of isomers) [Example 17]
1.54

Quick one: CC1N=C(C23CC(N(Cc4ccc(C(F)(F)F)cc4)S(=O)(=O)c4ccc(F)cc4)(C2)C3)N[C@@]1(C)C(=O)NCC1CCC1 (mixture of isomers) [Example 184]
2.04

Quick one: CC1(CNC(=O)[C@@]2(C)CN=C(C34CC(N(Cc5ccc(C(F)(F)F)cc5)S(=O)(=O)c5ccc(F)cc5)(C3)C4)N2)CCC1 (mixture of isomers) [Example 267]
2.63

Quick one: CC1(C)N=C(C23CC(N(Cc4ccc(Cl)c(Cl)c4)S(=O)(=O)CCCF)(C2)C3)N[C@H]1C(=O)NCC(F)(F)C(F)(F)F (mixture of isomers) [Example 142]
1.92

Quick one: CC1(C)N=C(C23CC(N(Cc4ccc(Cl)c(F)c4)S(=O)(=O)c4ccccc4)(C2)C3)N[C@H]1C(=O)N1CC[C@H](C(F)(F)F)C1 (mixture of isomers) [Example 171]
2.01

Quick one: CC1(C)N=C(C23CC(N(Cc4ccc(Cl)c(F)c4)S(=O)(=O)c4ccccc4)(C2)C3)N[C@H]1C(=O)N1CCC12CC(F)(F)C2 (mixture of isomers) [Example 94]
1.81

Quick one: CC1(C)N=C(C23CC(N(Cc4ccc(F)cc4)S(=O)(=O)c4ccccc4)(C2)C3)N[C@H]1C(=O)NCCC(F)(F)F (mixture of isomers) [Example 23]
1.60

Quick one: C[C@]1(C(=O)NCCC2CCC2)CN=C(C23CC(N(Cc4ccc(C(F)(F)F)cc4)S(=O)(=O)c4ccc(F)cc4)(C2)C3)N1 (mixture of isomers) [Example 278]
2.77

Quick one: CC(F)(F)CCS(=O)(=O)N(Cc1ccc(Cl)c(Cl)c1)C12CC(C3=NC(C)(C)[C@H](C(=O)NCC4CC(F)(F)C4)N3)(C1)C2 (mixture of isomers) [Example 158]
1.98
